# Condition set: human gut metagenome, 24 h, 2 µM; note: call rule not given here
Property measured: Bacterial Biotransformation

[[record]]
molecule = "CCCN(CCC)CCc1cccc2c1CC(=O)N2"
property_measured = "Bacterial Biotransformation"
test_value = "Compound NOT metabolized"

[[record]]
molecule = "CC(=O)CCCCn1c(=O)c2c(ncn2C)n(C)c1=O"
property_measured = "Bacterial Biotransformation"
test_value = "Compound NOT metabolized"

[[record]]
molecule = "C#C[C@]1(OC(C)=O)CC[C@H]2[C@@H]3CCC4=C[C@@H](OC(C)=O)CC[C@@H]4[C@H]3CC[C@@]21C [ETHYNODIOL DIACETATE]"
property_measured = "Bacterial Biotransformation"
test_value = "Compound metabolized"

[[record]]
molecule = "CC(C)c1nc(N(C)S(C)(=O)=O)nc(-c2ccc(F)cc2)c1/C=C/[C@@H](O)C[C@@H](O)CC(=O)[O-].CC(C)c1nc(N(C)S(C)(=O)=O)nc(-c2ccc(F)cc2)c1/C=C/[C@@H](O)C[C@@H](O)CC(=O)[O-].[Ca+2]"
property_measured = "Bacterial Biotransformation"
test_value = "Compound metabolized"

[[record]]
molecule = "COc1ccc(Cc2nccc3cc(OC)c(OC)cc23)cc1OC"
property_measured = "Bacterial Biotransformation"
test_value = "Compound metabolized"

[[record]]
molecule = "CC(C)[C@H]1CC[C@H](C(=O)N[C@H](Cc2ccccc2)C(=O)O)CC1 [NATEGLINIDE]"
property_measured = "Bacterial Biotransformation"
test_value = "Compound metabolized"

[[record]]
molecule = "CC(=O)OCC(=O)NCCCOc1cccc(CN2CCCCC2)c1 [ROXATIDINE ACETATE]"
property_measured = "Bacterial Biotransformation"
test_value = "Compound metabolized"

[[record]]
molecule = "C[C@]12C=CC(=O)C=C1CC[C@@H]1[C@@H]2C(=O)C[C@@]2(C)[C@H]1CC[C@]2(O)C(=O)CO"
property_measured = "Bacterial Biotransformation"
test_value = "Compound metabolized"

[[record]]
molecule = "COc1ccc([C@@H]2Sc3ccccc3N(CCN(C)C)C(=O)[C@@H]2OC(C)=O)cc1"
property_measured = "Bacterial Biotransformation"
test_value = "Compound metabolized"

[[record]]
molecule = "OC(c1cc(C(F)(F)F)nc2c(C(F)(F)F)cccc12)C1CCCCN1 (stereo not drawn)"
property_measured = "Bacterial Biotransformation"
test_value = "Compound metabolized"

[[record]]
molecule = "CN1[C@@H]2CC[C@H]1C[C@@H](OC(=O)[C@H](CO)c1ccccc1)C2"
property_measured = "Bacterial Biotransformation"
test_value = "Compound metabolized"

[[record]]
molecule = "COC(=O)C(c1ccccc1)C1CCCCN1 (stereo not drawn) [METHYLPHENIDATE]"
property_measured = "Bacterial Biotransformation"
test_value = "Compound NOT metabolized"

[[record]]
molecule = "CN(C)C(=O)Oc1cccc([N+](C)(C)C)c1.[Br-] [NEOSTIGMINE BROMIDE]"
property_measured = "Bacterial Biotransformation"
test_value = "Compound NOT metabolized"

[[record]]
molecule = "CCOc1cc(CC(=O)N[C@@H](CC(C)C)c2ccccc2N2CCCCC2)ccc1C(=O)O [REPAGLINIDE]"
property_measured = "Bacterial Biotransformation"
test_value = "Compound metabolized"

[[record]]
molecule = "O=C1CN2Cc3c(ccc(Cl)c3Cl)N=C2N1 [ANAGRELIDE]"
property_measured = "Bacterial Biotransformation"
test_value = "Compound metabolized"

[[record]]
molecule = "COc1ccc(CN2CCNCC2)c(OC)c1OC.Cl.Cl [TRIMETAZIDINE DIHYDROCHLORIDE]"
property_measured = "Bacterial Biotransformation"
test_value = "Compound NOT metabolized"

[[record]]
molecule = "CCOc1ccc2nc(S(N)(=O)=O)sc2c1 [ETHOXZOLAMIDE]"
property_measured = "Bacterial Biotransformation"
test_value = "Compound NOT metabolized"

[[record]]
molecule = "CN1CCC[C@@H]1CCO[C@](C)(c1ccccc1)c1ccc(Cl)cc1.O=C(O)/C=C/C(=O)O [CLEMASTINE FUMARATE]"
property_measured = "Bacterial Biotransformation"
test_value = "Compound metabolized"

[[record]]
molecule = "COc1ccc(/C=C/C(=O)Nc2ccccc2C(=O)O)cc1OC"
property_measured = "Bacterial Biotransformation"
test_value = "Compound NOT metabolized"

[[record]]
molecule = "COC1=C(OC)C(=O)C(CCCCCCCCCCO)=C(C)C1=O"
property_measured = "Bacterial Biotransformation"
test_value = "Compound metabolized"

[[record]]
molecule = "CCN(C(C)=O)c1cccc(-c2ccnc3c(C#N)cnn23)c1"
property_measured = "Bacterial Biotransformation"
test_value = "Compound metabolized"

[[record]]
molecule = "O=C1C(CC[S+]([O-])c2ccccc2)C(=O)N(c2ccccc2)N1c1ccccc1 (stereo not drawn)"
property_measured = "Bacterial Biotransformation"
test_value = "Compound metabolized"

[[record]]
molecule = "O=C(O)CCC(=O)O.O=C(O[C@H]1CN2CCC1CC2)N1CCc2ccccc2[C@@H]1c1ccccc1 [SOLIFENACIN SUCCINATE]"
property_measured = "Bacterial Biotransformation"
test_value = "Compound metabolized"

[[record]]
molecule = "O=C(NC(Cc1cc(=O)[nH]c2ccccc12)C(=O)O)c1ccc(Cl)cc1 (stereo not drawn) [REBAMIPIDE]"
property_measured = "Bacterial Biotransformation"
test_value = "Compound NOT metabolized"

[[record]]
molecule = "CCOC(=O)[C@H](CCc1ccccc1)N[C@@H](C)C(=O)N1Cc2ccccc2C[C@H]1C(=O)O"
property_measured = "Bacterial Biotransformation"
test_value = "Compound metabolized"

[[record]]
molecule = "CN1CCC(OC(c2ccccc2)c2ccccc2)CC1"
property_measured = "Bacterial Biotransformation"
test_value = "Compound metabolized"

[[record]]
molecule = "N#Cc1ccc2c(c1)N(CCCN1CCC(O)CC1)c1ccccc1S2"
property_measured = "Bacterial Biotransformation"
test_value = "Compound metabolized"

[[record]]
molecule = "CN(C)CCc1c[nH]c2ccc(CS(=O)(=O)N3CCCC3)cc12"
property_measured = "Bacterial Biotransformation"
test_value = "Compound NOT metabolized"

[[record]]
molecule = "CC(CCc1ccccc1)NCC(O)c1ccc(O)c(C(N)=O)c1 (stereo not drawn)"
property_measured = "Bacterial Biotransformation"
test_value = "Compound NOT metabolized"

[[record]]
molecule = "OCCN(CCO)c1nc(N2CCCCC2)c2nc(N(CCO)CCO)nc(N3CCCCC3)c2n1"
property_measured = "Bacterial Biotransformation"
test_value = "Compound metabolized"

[[record]]
molecule = "COc1ccccc1OCCNCC(O)COc1cccc2[nH]c3ccccc3c12 (stereo not drawn)"
property_measured = "Bacterial Biotransformation"
test_value = "Compound metabolized"

[[record]]
molecule = "COc1ccnc(C[S+]([O-])c2nc3ccc(OC(F)F)cc3[nH]2)c1OC (stereo not drawn)"
property_measured = "Bacterial Biotransformation"
test_value = "Compound metabolized"

[[record]]
molecule = "CC(=O)OCC(=O)[C@@]1(OC(C)=O)[C@@H](C)C[C@H]2[C@@H]3C[C@H](F)C4=CC(=O)C=C[C@]4(C)[C@@]3(F)[C@@H](O)C[C@@]21C [DIFLORASONE DIACETATE]"
property_measured = "Bacterial Biotransformation"
test_value = "Compound metabolized"


---

# Assay overview: The drug is tested on WLS-038 corresponding to human gut metagenome with ENA study accession number: PRJEB37062 and ENA sample accession number: ERS12561745 for biotransformation under anaerobic condition. The drug concentrations were measured over 9 timepoints collected between 0 and 24 hours of incubation by liquid-chromatography-coupled mass spectrometry (LC–MS)
# Condition set: 2 µM
Property measured: Bacterial Biotransformation

[[record]]
compound = "CC(C)(C)NC[C@H](O)COc1nsnc1N1CCOCC1.O=C(O)/C=C\\C(=O)O [TIMOLOL MALEATE]"
test_value = "Compound NOT metabolized"

[[record]]
compound = "COc1ccnc(C[S+]([O-])c2nc3ccc(OC(F)F)cc3[nH]2)c1OC (stereo not drawn)"
test_value = "Compound metabolized"

[[record]]
compound = "COc1ccc2cc([C@H](C)C(=O)O)ccc2c1"
test_value = "Compound NOT metabolized"

[[record]]
compound = "N#Cc1ccc2c(c1)N(CCCN1CCC(O)CC1)c1ccccc1S2"
test_value = "Compound metabolized"

[[record]]
compound = "COc1cc(C(=O)NCc2ccc(OCCN(C)C)cc2)cc(OC)c1OC [TRIMETHOBENZAMIDE]"
test_value = "Compound NOT metabolized"

[[record]]
compound = "CC(=O)OCC(=O)NCCCOc1cccc(CN2CCCCC2)c1 [ROXATIDINE ACETATE]"
test_value = "Compound metabolized"

[[record]]
compound = "Cc1ccccc1C(OCCN(C)C)c1ccccc1.O=C(O)CC(O)(CC(=O)O)C(=O)O (stereo not drawn) [ORPHENADRINE CITRATE]"
test_value = "Compound NOT metabolized"

[[record]]
compound = "CCN(CC)CCNC(=O)c1ccc(NC(C)=O)cc1 [ACECAINIDE]"
test_value = "Compound NOT metabolized"

[[record]]
compound = "CC(NC(C)(C)C)C(=O)c1cccc(Cl)c1 (stereo not drawn)"
test_value = "Compound NOT metabolized"

[[record]]
compound = "CCOc1ccccc1OCCN[C@H](C)Cc1ccc(OC)c(S(N)(=O)=O)c1.Cl [TAMSULOSIN HYDROCHLORIDE]"
test_value = "Compound NOT metabolized"

[[record]]
compound = "C[C@]12CCC(=O)C=C1[C@@H]1C[C@@H]1[C@H]1[C@@H]3[C@@H]4C[C@@H]4[C@@]4(CCC(=O)O4)[C@@]3(C)CC[C@@H]12"
test_value = "Compound metabolized"

[[record]]
compound = "COc1cc(NC(C)CCCN)c2ncccc2c1.O=P(O)(O)O.O=P(O)(O)O (stereo not drawn) [PRIMAQUINE PHOSPHATE]"
test_value = "Compound NOT metabolized"

[[record]]
compound = "Clc1cccc(Cl)c1N=C1NCCN1"
test_value = "Compound NOT metabolized"

[[record]]
compound = "CSc1ccc2c(c1)C(N1CCN(C)CC1)Cc1ccccc1S2.O=C(O)/C=C\\C(=O)O (stereo not drawn)"
test_value = "Compound NOT metabolized"

[[record]]
compound = "CNNCc1ccc(C(=O)NC(C)C)cc1"
test_value = "Compound NOT metabolized"

[[record]]
compound = "CC(=O)Oc1ccc(C(c2ccc(OC(C)=O)cc2)c2ccccn2)cc1"
test_value = "Compound metabolized"

[[record]]
compound = "CC(CCc1ccccc1)NCC(O)c1ccc(O)c(C(N)=O)c1 (stereo not drawn)"
test_value = "Compound NOT metabolized"

[[record]]
compound = "CCCN(CCC)CCc1cccc2c1CC(=O)N2"
test_value = "Compound NOT metabolized"

